molecular target: purified full-length human ERbeta (Homo sapiens, UniProt Q92731); construct: purified full-length human ERalpha and ERbeta receptors purchased from Pan Vera (Madison, Wis.); purchased Pan Vera (Madison, Wis.); test: Competitive radiometric binding assay, relative binding affinity (RBA), ERbeta; conditions: normalized to estradiol set at 100%; [3H]estradiol 10 nM tracer, 18-24 h at 0° C
Sequence (Q92731 whole entry): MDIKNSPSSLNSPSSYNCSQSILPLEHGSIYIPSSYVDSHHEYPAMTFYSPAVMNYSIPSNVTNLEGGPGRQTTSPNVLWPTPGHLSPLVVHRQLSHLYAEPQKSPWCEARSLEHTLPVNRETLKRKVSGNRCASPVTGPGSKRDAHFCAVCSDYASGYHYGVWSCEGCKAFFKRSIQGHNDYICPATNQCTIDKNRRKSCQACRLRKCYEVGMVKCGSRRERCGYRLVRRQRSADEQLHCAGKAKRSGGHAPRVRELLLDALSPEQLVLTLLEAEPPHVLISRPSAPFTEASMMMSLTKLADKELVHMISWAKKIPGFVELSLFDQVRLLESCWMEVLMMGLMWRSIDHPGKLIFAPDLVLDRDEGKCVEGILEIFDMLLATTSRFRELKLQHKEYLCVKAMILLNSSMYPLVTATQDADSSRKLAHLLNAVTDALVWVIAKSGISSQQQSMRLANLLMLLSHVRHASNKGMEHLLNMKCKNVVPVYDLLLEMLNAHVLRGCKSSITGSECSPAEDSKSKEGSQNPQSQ
Listed here are compounds together with their documented Relative binding affinity (RBA) ERβ.
I only need the number, in %, no unit after it.

| COMPOUND | Relative binding affinity (RBA) ERβ / % |
| --- | --- |
| CCCCCN(c1ccc(O)cc1)S(=O)(=O)c1ccc(O)cc1 [Compound 20f] | 0.60 |

Query: // fetch Relative binding affinity (RBA) ERβ given entry CCCN(c1ccc(O)cc1)S(=O)(=O)c1ccc(O)cc1 [Compound 20c]
Response: 2.56

Query: // fetch Relative binding affinity (RBA) ERβ given entry CCCCN(c1ccc(O)cc1)S(=O)(=O)c1ccc(O)cc1 [Compound 20d]
Response: 1.15
